Target: human GLP-1R receptor (Homo sapiens, UniProt P43220)
Sequence (P43220 24-463): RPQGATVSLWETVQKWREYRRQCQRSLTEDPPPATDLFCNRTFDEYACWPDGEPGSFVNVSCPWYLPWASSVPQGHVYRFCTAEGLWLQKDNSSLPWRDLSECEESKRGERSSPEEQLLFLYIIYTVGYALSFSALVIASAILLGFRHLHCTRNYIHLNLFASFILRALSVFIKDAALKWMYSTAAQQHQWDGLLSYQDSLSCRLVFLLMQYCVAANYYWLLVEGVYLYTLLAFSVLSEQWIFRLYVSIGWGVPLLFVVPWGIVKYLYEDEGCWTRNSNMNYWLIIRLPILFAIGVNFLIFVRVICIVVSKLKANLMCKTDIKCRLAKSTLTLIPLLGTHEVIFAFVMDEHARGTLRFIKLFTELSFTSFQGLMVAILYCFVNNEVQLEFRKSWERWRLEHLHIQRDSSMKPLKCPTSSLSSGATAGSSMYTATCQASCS
Assay: GLP-1R low expression cell assay (cAMP TR-FRET, CHO-K1_hGLP-1Rlow_clone10 cells)
Conditions: cAMP TR-FRET, 30 min at 25° C.
observed property: EC50

Here is how some compounds turned out for EC50.
compound | result
C[C@]1(c2ccc(Cl)cn2)Oc2cccc(C3CCN(Cc4nc5cc(C(=O)O)c6c(c5n4C[C@@H]4CCO4)OCCO6)CC3)c2O1 [Compound 99] | > 1000 nM
O=C(O)c1ccc2c(nc(CN3CCC(c4cccc(OCc5ccc(Cl)cc5F)n4)CC3)n2C[C@@H]2CCO2)c1O [Compound 245] | < 10 nM
Cn1c(CN2CCC(c3cccc(OCc4ccc(C#N)cc4F)n3)CC2)nc2c(OCCO)cc(C(=O)O)cc21 [Compound 291] | < 10 nM
Cn1c(CN2CCC(c3cccc(OCc4ccc(F)cc4)n3)CC2)nc2c(OC(F)F)cc(C(=O)O)cc21 [Compound 254] | 100 to 1000 nM

Report EC50 for Cn1c(CN2CCC(c3cccc(OCc4ccc(C#N)cn4)n3)CC2)nc2c(OC(F)F)cc(C(=O)O)cc21 [Compound 213]
100 to 1000 nM

Report EC50 for Cn1c(CN2CCC(c3cccc(OCc4ccc(Cl)cc4F)n3)CC2)nc2c(OCC3(C#N)CC3)cc(C(=O)O)cc21 [Compound 214]
100 to 1000 nM

Report EC50 for Cn1c(CN2CCC(c3cccc(OCc4ccc(Cl)cc4F)n3)CC2)nc2c(OC(F)F)cc(NCC(=O)O)cc21 [Compound 255]
100 to 1000 nM
